targetEntity: Isocitrate dehydrogenase [NADP] cytoplasmic (Homo sapiens, UniProt O75874, R132H)
Sequence (O75874 2-414 R132H limits assumed): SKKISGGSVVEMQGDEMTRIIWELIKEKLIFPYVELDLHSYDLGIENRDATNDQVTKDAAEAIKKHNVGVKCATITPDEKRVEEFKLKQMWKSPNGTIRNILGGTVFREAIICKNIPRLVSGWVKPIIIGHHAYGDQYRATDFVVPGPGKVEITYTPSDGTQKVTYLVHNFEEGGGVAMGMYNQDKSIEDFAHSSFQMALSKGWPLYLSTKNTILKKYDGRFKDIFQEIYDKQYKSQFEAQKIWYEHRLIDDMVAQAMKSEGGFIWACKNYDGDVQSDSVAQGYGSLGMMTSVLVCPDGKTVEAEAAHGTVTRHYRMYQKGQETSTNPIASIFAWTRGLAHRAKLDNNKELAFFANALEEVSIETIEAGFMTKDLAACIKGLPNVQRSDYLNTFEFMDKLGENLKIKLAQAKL
test: Inhibition of IDH1 R132H mutant (unknown origin) assessed as reduction in NADPH consumption using alpha-KG as substrate incubated for 5 mins followed by substrate addition and measured every 1 min
pIC50: −log10 of the molar value.
Measured pIC50, listed per entry.

| molecule | pIC50 |
| --- | --- |
| COc1c(O)c(C)c2c(c1O)[C@H]1O[C@@H]2[C@H]2C(=O)[C@H](O)CC/C(C)=C/[C@H]3C=C(C)[C@@H](C)[C@H]4[C@H](CC(C)C)NC(=O)[C@]43C(=O)[C@@H]21 | 4.93 |
| CC(C)C[C@@H]1NC(=O)[C@]23[C@H]1[C@H](C)C(CO)=C[C@@H]2[C@@H]1[C@@]2(CCC[C@@]1(C)O)CC[C@]3(O)O2 | < 4.30 |
| Cc1ccccc1C(C(=O)NC1CCCCC1)N(C(=O)Cn1ccnc1C)c1cccc(F)c1 (stereo unspecified) | 6.70 |
| CC1=C[C@@H]2/C=C(\C)CC[C@@H](O)C(=O)[C@H]3[C@H](C(=O)[C@]24C(=O)N[C@@H](CC(C)C)[C@@H]4[C@@H]1C)[C@H]1O[C@@H]3c2c(O)c(O)c(O)c(C)c21 | < 4.30 |
| C=C1CC[C@@H](O)[C@]23CC[C@](O)(O2)[C@@]24C(=O)N[C@@H](CC(C)C)[C@@H]2[C@H](C)C(C)=C[C@@H]4[C@@H]13 | < 4.30 |

Attention now turns to another entry.
Could you tell me which pIC50 is on file for CC1=C[C@@H]2/C=C(\C)CC[C@@H](O)C(=O)[C@H]3[C@H](C(=O)[C@]24C(=O)N[C@@H](CC(C)C)[C@@H]4[C@@H]1C)[C@@H]1O[C@H]3c2c(O)c(O)c(O)c(C)c21 ?
< 4.30
